target: UniProt P18031; assay: Noncompetitive inhibition of human recombinant PTP1B using p-nitrophenylphosphate as substrate by Lineweaver-Burk plot analysis
pKi: −log10 of the molar value.
OBSERVED PROPERTY: pKi

{"SMILES STRING": "OCc1ccc(-c2ccc(O)cc2O)c(C(O)(c2ccc(O)cc2)c2ccc(O)cc2)c1C#Cc1ccc(O)cc1", "RECORDED NUMBER": 4.99}

###

target: Tyrosine-protein phosphatase non-receptor type 1 (Homo sapiens, UniProt P18031); experiment: Inhibition of human recombinant PTP1B using p-nitrophenylphosphate as substrate
Sequence (P18031 whole entry): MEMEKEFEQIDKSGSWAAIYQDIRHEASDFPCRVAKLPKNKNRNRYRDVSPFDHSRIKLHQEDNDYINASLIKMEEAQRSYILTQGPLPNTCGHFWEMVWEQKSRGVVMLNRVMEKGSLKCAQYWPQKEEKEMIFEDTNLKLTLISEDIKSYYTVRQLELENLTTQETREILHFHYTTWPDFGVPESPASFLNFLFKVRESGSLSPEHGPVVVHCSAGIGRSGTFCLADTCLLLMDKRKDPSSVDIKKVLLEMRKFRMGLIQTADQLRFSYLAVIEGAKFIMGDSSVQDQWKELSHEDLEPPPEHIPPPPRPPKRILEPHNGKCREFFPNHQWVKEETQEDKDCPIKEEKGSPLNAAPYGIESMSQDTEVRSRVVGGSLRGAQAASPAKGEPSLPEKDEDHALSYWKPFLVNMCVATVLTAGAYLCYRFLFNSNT
pIC50: −log10 of the molar value.
Reported pIC50 by item:

{"SMILES STRING": "OCc1ccc(-c2ccc(O)cc2O)c(C(O)(c2ccc(O)cc2)c2ccc(O)cc2)c1C#Cc1ccc(O)cc1", "pIC50": 4.67}
{"SMILES STRING": "COCc1ccc(-c2ccc(O)cc2O)c(C(O)(c2ccc(O)cc2)c2ccc(O)cc2)c1C#Cc1ccc(O)cc1", "pIC50": 4.71}
{"SMILES STRING": "O=C(O)c1nnc(-c2ccc(-c3ccccc3)cc2)o1", "pIC50": 6.15}
{"SMILES STRING": "COc1ccc(C(=C2C=CC(=O)C=C2)c2c(-c3ccc(O)cc3)ccc(CO)c2C#Cc2ccc(O)cc2)cc1", "pIC50": 4.94}

The values you see were collected from ChEMBL document CHEMBL3392973.
